Each item that follows carries a reported GFP response vs DMSO.
assay: RPL19A-GFP modulators, yeast TOR pathway, confirmation, cell-based, S. cerevisiae, flow cytometry, cherry picks, mother/daughter gates (AID 2270); settings: S. cerevisiae RPL19A-GFP strain, 3 h, measured here: mother cell gate, at 10 µM, stronger effect = lower value, 100 = same GFP as DMSO wells
All answers are understood in %, so give the number only.

Q) Let me know recorded GFP response vs DMSO for Cc1ccc(NN2C(=O)C=C(c3ccc(Cl)cc3)C2=O)cc1 , thanks.
A) 74.3

Q) Let me know recorded GFP response vs DMSO for Cc1nc2c(-c3ccc(F)cc3)c(C)nn2c(N2CCOCC2)c1C , thanks.
A) 100

Q) Let me know recorded GFP response vs DMSO for CCOC(=O)Cc1csc(NC(=O)CCCCCN2C(=O)c3cccc4cccc(c34)C2=O)n1 , thanks.
A) 99.3

Q) Let me know recorded GFP response vs DMSO for Cc1cc(NCCN2CCOCC2)n2nc(C)c(-c3ccc(Cl)cc3)c2n1 , thanks.
A) 95.8

Q) Let me know recorded GFP response vs DMSO for COC(=O)c1cc(N2C(=O)C3C(C2=O)C2(C)C=CC3(C)O2)ccc1Cl (stereo not drawn) , thanks.
A) 92.5

----------
experiment: RPL19A-GFP modulators, yeast TOR pathway, confirmation, cell-based, S. cerevisiae, flow cytometry, cherry picks, mother/daughter gates (AID 2270); conditions: S. cerevisiae RPL19A-GFP strain, 3 h, measured here: mother cell gate, at 10 µM, stronger effect = lower value, 100 = same GFP as DMSO wells
QUANTITY MEASURED: GFP response vs DMSO (%)
All answers are understood in %, so give the number only.

In the examples that follow, each entry is paired with its recorded GFP response vs DMSO.
>>> observed("COc1ccccc1-c1noc(CCC(=O)Nc2cccc(C)c2)n1")
100
>>> observed("CCCCc1[nH]nc2c1C1(C(=O)N(CC)c3ccccc31)C(C#N)=C(N)O2 (centres undefined)")
103
>>> observed("O=c1[nH]c(CCl)nc2cc(-c3ccc(Cl)cc3)sc12")
98.5
>>> observed("COCCCN1C(=O)C2C(C(=O)Nc3cc(C)cc(C)c3)C3C=CC2(O3)C1C(=O)NC1CCCCC1 (centres undefined)")
101

We now examine a further compound.
Q) Let me know recorded GFP response vs DMSO for CCOC(=O)CNc1c(-c2ccc(O)cc2)nc2ccc(Cl)cn12 , thanks.
A) 101

----------
Each item that follows carries a reported GFP response, % of DMSO.
assay: AGP1-GFP expression modulators, hit retest, confirmation, cell-based, flow cytometry, S. cerevisiae, cherry picks (AID 2273);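 further: median GFP channel fluorescence over the whole cell population gate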; settings: S. cerevisiae AGP1-GFP strain, 3 h, at 10 µM
All answers are understood in %, so give the number only.

In the examples that follow, each entry is paired with its recorded GFP response, % of DMSO.
>>> observed("O=[N+]([O-])c1cc(CN2CCN(c3cccc(C(F)(F)F)c3)CC2)c2cccnc2c1O")
116
>>> observed("Clc1ccc(-n2nnnc2Sc2ncnc3sccc23)cc1")
115
>>> observed("CCC(=O)Nc1cccc(C(=O)/C=C/c2cc(Br)ccc2OC)c1")
97.2

Q) Let me know recorded GFP response, % of DMSO for Cc1cc(C(=O)Nc2nc(-c3ccccn3)cs2)ccc1[N+](=O)[O-] , thanks.
A) 84.3

Q) Let me know recorded GFP response, % of DMSO for CCOC(=O)C(C(=O)OCC)C(C(=O)OCC)N1CCOCC1 (stereo not drawn) , thanks.
A) 90.2

Q) Let me know recorded GFP response, % of DMSO for CCOC(=O)c1ccccc1NC(=O)c1c(O)c2ccccc2n(CC)c1=O , thanks.
A) 93.7
